Exercise: for every item that follows, state its recorded self-cleavage.
B1: LINE1-full (parent)
chain: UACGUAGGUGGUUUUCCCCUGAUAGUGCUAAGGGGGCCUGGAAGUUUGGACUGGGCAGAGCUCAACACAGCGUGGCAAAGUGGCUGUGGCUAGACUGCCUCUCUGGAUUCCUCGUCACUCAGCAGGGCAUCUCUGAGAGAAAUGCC

- Variants of: B1
- method-notes: self-cleavage, relative activity (ratio to wild type); higher = more cleavage; in vitro, sequencing; the parent is a self-cleaving ribozyme
Give bare numbers.

// for each variant in input: emit self-cleavage
1. A43G C113U
2. C68U A141G

A.
1. 1.12
2. 0.3

// for each variant in input: emit self-cleavage
1. A79U U130C
2. A31G U47C
3. A59G A92C
4. G44A A94U
5. G40U G58A
6. C3A U96C
7. U46G U132A
8. U20G A69U

A.
1: 2.63; 2: 0.79; 3: 0.14; 4: 0; 5: 0.02; 6: 0.2; 7: 1.4; 8: 0

Data origin, for the record: the RNAGym collection of RNA variant scans (doi:10.7554/elife.90254)
